# Test system: SEM cells
# test_name: cell viability relative to DMSO control; higher = less cytotoxic
# conditions_used: HPLM + 10% dialyzed FBS; 48 h; 0.0211 µM
endpoint_label: cell viability
Answer as a quantity: numeral, then unit.

Sample answers from the record:
- smiles: "COC(=O)Nc1nc2cc(Sc3ccccc3)ccc2[nH]1"
  endpoint_label: "cell viability"
  assay_value: "115%"
- smiles: "COC1=CC(=C2C(=O)N(COC/3=C/C(=O)N4\\C=C/C=C(OCCN5CCCCC5)\\C4=N3)[S+]([O-])(=O)C2=C1)C(C)C"
  endpoint_label: "cell viability"
  assay_value: "131%"
- smiles: "COc1cc2nc(N3CCN(C(=O)c4ccco4)CC3)nc(N)c2cc1OC"
  endpoint_label: "cell viability"
  assay_value: "86.4%"
- smiles: "O=C(O)CCc1ccc(NCc2cccc(Oc3ccccc3)c2)cc1"
  endpoint_label: "cell viability"
  assay_value: "103%"
- smiles: "CCCCC(F)(F)[C@@]1(O)CC[C@H]2[C@@H](CC(=O)[C@@H]2CCCCCCC(=O)O)O1"
  endpoint_label: "cell viability"
  assay_value: "121%"

Next, consider the following compound.
Query (compound): Cc1ccc(Nc2nccc(N(C)c3ccc4c(C)n(C)nc4c3)n2)cc1[S+](N)(=O)[O-] ; field requested: cell viability 105%
